# Tested on: PRKG1
# recorded conditions: concentration: 1 μM, replicates: in singlicate; n = 1;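 further: KINOMEscan kinase panel screen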
measurement name: %Inh (%)

>  <compound>
CN1CCN(CCCNc2nccc(-c3c(-c4ccc(F)cc4)nn4cc(C(F)(F)F)ccc34)n2)CC1

>  <system tested>
PRKG1

>  <numeric value>
10

$$$$
>  <compound>
CC(=O)Nc1nc2cnc(Nc3cc(NC(=O)c4cccc(C5(C#N)CC5)c4Cl)ccc3C)nc2s1

>  <system tested>
PRKG1

>  <numeric value>
0

$$$$
>  <compound>
Cl.c1ccc(-c2ccc3c(Nc4ccc5[nH]ccc5c4)ccnc3c2)nc1

>  <system tested>
PRKG1

>  <numeric value>
0

$$$$
>  <compound>
COc1cc(Nc2nccc(N3CCC(NC(=O)c4cc5ccccc5s4)C3)n2)cc(OC)c1OC (stereo not drawn)

>  <system tested>
PRKG1

>  <numeric value>
9

$$$$
>  <compound>
COc1cccc(-c2ccc3c(NC(=O)C4CC4)n[nH]c3n2)c1

>  <system tested>
PRKG1

>  <numeric value>
0

$$$$
>  <compound>
Cc1ccc(C)c(NC(=O)NC2CCN(c3ccnc(Nc4ccc(F)cc4)n3)C2)c1 (stereo not drawn)

>  <system tested>
PRKG1

>  <numeric value>
0

$$$$
>  <compound>
c1ccc(Oc2ccc(Nc3ccnc4cc(-c5ccc(CNCCN6CCOCC6)o5)ccc34)cc2)nc1

>  <system tested>
PRKG1

>  <numeric value>
1

$$$$
>  <compound>
COc1cc(Nc2nccc(-c3c(-c4cccc(NC(=O)c5c(F)cccc5F)c4)nn4ccccc34)n2)cc(OC)c1OC

>  <system tested>
PRKG1

>  <numeric value>
31

$$$$
>  <compound>
C[C@@H](Oc1cc(-n2cnc3cc(-c4ccnc(NCCS(C)(=O)=O)c4)ccc32)sc1C(N)=O)c1ccccc1Cl

>  <system tested>
PRKG1

>  <numeric value>
10

$$$$

###

# Test system: PCTK2
# Construct: gene CDK17
# recorded conditions: concentration: 1 μM, replicates: in singlicate; n = 1
Reported %Inh values for the following molecules.

>  <molecule>
Oc1cc(Nc2ccnc3cc(I)ccc23)ccc1F [GW552771]

>  <%Inh (%)>
0

$$$$
>  <molecule>
O=C(Nc1n[nH]c2cc(-c3ccoc3)ccc12)C1CC1 [SB-738481]

>  <%Inh (%)>
51

$$$$
>  <molecule>
COc1cc(Nc2nccc(-c3c(-c4cccc(NC(=O)c5c(F)cccc5F)c4)nn4ccccc34)n2)cc(OC)c1OC [GSK323521]

>  <%Inh (%)>
8

$$$$
>  <molecule>
O=C(Nc1ccccc1F)NC1CCN(c2ccnc(Nc3ccc(F)cc3)n2)CC1 [GSK1379800]

>  <%Inh (%)>
0

$$$$

###

Listed here: items and their measured %Inh.
# Test system: CSNK2A1
# recorded conditions: concentration: 1 μM, replicates: in singlicate; n = 1
measurement name: %Inh (%)

>  <compound>
CN1CCN(Cc2cccc(-c3ccc4c(Nc5ccc(Oc6ccccc6)cc5)ccnc4c3)c2)CC1

>  <numeric value>
0

$$$$
>  <compound>
Cc1occc1-c1ncc(OC[C@@H](N)Cc2c[nH]c3ccccc23)cc1-c1ccc2[nH]nc(C)c2c1.O=C(O)C(F)(F)F

>  <numeric value>
0

$$$$
>  <compound>
COc1cc(Nc2nccc(N3CCC(NC(=O)c4cc5ccccc5s4)C3)n2)cc(OC)c1OC (stereo not drawn)

>  <numeric value>
27

$$$$
>  <compound>
Cc1cccc(NC(=O)Nc2ccc(Oc3ncnc4ccn(C)c34)cc2)c1

>  <numeric value>
0

$$$$
>  <compound>
FC(F)(F)c1ccc(/C=C/c2cncnc2Nc2ccc3[nH]c(Cc4ccccc4)nc3c2)cc1

>  <numeric value>
0

$$$$
>  <compound>
COc1ccc(Nc2nccc(NCCNC(=O)c3cc4ccccc4s3)n2)cc1

>  <numeric value>
0

$$$$
>  <compound>
Cn1cc(-c2ccc3c(c2)CCN3C(=O)Cc2cccc(F)c2)c2c(N)ncnc21

>  <numeric value>
0

$$$$
>  <compound>
Clc1ccc(-c2nn3ncccc3c2-c2ccnc(Nc3ccc4c(c3)OCCO4)n2)cc1

>  <numeric value>
0

$$$$
>  <compound>
Cn1cc(-c2ccc3c(c2)CCN3C(=O)Cc2cccc(Cl)c2)c2c(N)ncnc21

>  <numeric value>
8

$$$$
>  <compound>
Cl.Cl.NCC(NC(=O)c1cc(-c2ccccc2)c(-c2ccnc3[nH]ccc23)s1)c1ccccc1 (stereo not drawn)

>  <numeric value>
5

$$$$
>  <compound>
CC(=O)N1CCN(c2ccc(Nc3nccc(-c4sc(C(C)C)nc4-c4cccc(NS(=O)(=O)c5cccc(Cl)c5)c4)n3)cn2)CC1

>  <numeric value>
13

$$$$
>  <compound>
Cl.c1ccc(-c2ccc3c(Nc4ccc5[nH]ccc5c4)ccnc3c2)nc1

>  <numeric value>
0

$$$$
>  <compound>
Cl.NC(=O)c1cccc(Nc2nccc(Nc3ccc(Oc4c(Cl)cccc4Cl)c(Cl)c3)n2)c1

>  <numeric value>
3

$$$$
>  <compound>
COc1cc(Nc2nccc(-c3c(-c4cccc(NC(=O)c5c(F)cccc5F)c4)nn4ncccc34)n2)cc(OC)c1OC

>  <numeric value>
0

$$$$
>  <compound>
O=C(NC1CCN(c2ccnc(Nc3ccc(F)cc3)n2)C1)c1cc2ccccc2s1 (stereo not drawn)

>  <numeric value>
0

$$$$

All values here come from paper PMC5540273.
